Origin of the recorded values: the FLAb antibody collection (doi:10.7554/elife.23156)

B1: scFv; the commonest letter at each place (parent)
chain 1: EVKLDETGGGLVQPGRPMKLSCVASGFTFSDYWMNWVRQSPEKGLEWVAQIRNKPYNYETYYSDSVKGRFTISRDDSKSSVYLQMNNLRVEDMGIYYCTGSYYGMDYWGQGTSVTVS
chain 2: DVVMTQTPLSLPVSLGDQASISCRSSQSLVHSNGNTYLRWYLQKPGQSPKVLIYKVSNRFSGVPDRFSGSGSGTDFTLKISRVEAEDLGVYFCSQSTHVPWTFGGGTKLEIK

variants of: B1; test: Kd (Tite-Seq); settings: with fluorescein; format: scFv 4-4-20, heavy + light
pKd: −log10 of the molar value.
MEASUREMENT TYPE: pKd

Field: example entries. Status: answers known.
Record chain 1 N35S V37L , field pKd: ≤ 5.00

pKd recorded for this variant, chain 1 S101K Y103R , is ≤ 5.00

So, chain 1 Y32R W33I ? Its pKd was ≤ 5.00

The variant chain 1 Y103M D106F Y107G showed pKd equal to ≤ 5.00

Quick note, pKd for chain 1 W33G M34I landed at ≤ 5.00

Item: chain 1 G104F Y107Q | pKd: ≤ 5.00

New cases:
chain 1 S30R N35V yielded pKd of ≤ 5.00

GET /value?item= chain 1 Y103C D106L &field=pKd returns ≤ 5.00
